Measured values drawn from ChEMBL document CHEMBL3991601 for this set.

biological target: Mitogen-activated protein kinase 11 (Homo sapiens, UniProt Q15759); further: in the data inactive means no Kd found up to 30 µM
Sequence (Q15759 whole entry): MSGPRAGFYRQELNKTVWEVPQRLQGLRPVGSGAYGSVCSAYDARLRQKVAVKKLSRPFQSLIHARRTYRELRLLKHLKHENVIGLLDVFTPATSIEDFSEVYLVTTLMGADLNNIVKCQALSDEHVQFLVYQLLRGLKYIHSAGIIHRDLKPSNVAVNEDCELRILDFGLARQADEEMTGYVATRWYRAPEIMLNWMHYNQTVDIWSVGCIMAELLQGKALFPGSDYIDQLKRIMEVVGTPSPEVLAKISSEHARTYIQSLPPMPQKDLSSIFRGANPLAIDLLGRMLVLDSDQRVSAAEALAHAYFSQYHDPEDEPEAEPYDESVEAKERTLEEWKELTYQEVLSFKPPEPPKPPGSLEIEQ
The source made the active and inactive calls.
Log the outcome using a class from active, inactive

query: Call for entry `CCN1CCN(Cc2ccc(-c3cc4c(N[C@H](C)c5ccccc5)ncnc4[nH]3)cc2)CC1` :
result: inactive

query: And the next one, `COc1cc(N2CCC(N3CCN(C)CC3)CC2)ccc1Nc1ncnc(Nc2ccccc2S(=O)(=O)C(C)C)n1` ?
result: inactive

query: // same read-out, input: `Cc1cc(-c2cc(O)ccc2Cl)cc2nnc(Nc3ccc(OCCN4CCCC4)cc3)nc12`
result: inactive

query: Another compound to check: `Cc1ccc(-n2nc(C(C)(C)C)cc2NC(=O)NCc2cc(F)ccc2Oc2ccc3c(cnn3CCO)c2)cc1`
result: active

query: Now this one: `CC(=O)Nc1cccc(-n2c(=O)n(C3CC3)c(=O)c3c(Nc4ccc(I)cc4F)n(C)c(=O)c(C)c32)c1`
result: inactive

query: // repeat for `CC(C)Nc1cc(-c2c[nH]c(C(=O)N[C@H](CO)c3cccc(Cl)c3)c2)c(Cl)cn1` and report
result: inactive

query: # repeat for `Cc1cc(Nc2cc(N3CCN(C)CC3)nc(/C=C/c3ccccc3)n2)n[nH]1`
result: inactive

query: Also `OCCn1cc(-c2cnc3nnn(Cc4ccc5ncccc5c4)c3n2)cn1` , if possible.
result: inactive

----------
Activity calls are given as the source filed them.
Test system UniProt Q9BZE4, Kd listed for each of the molecules.

query: Bench note: what Kd did Cc1ccc(NC(=O)c2ccc(CN3CC[C@H](N(C)C)C3)c(C(F)(F)F)c2)cc1Nc1nccc(-c2cncnc2)n1 [BAFETINIB] show?
result: > 30 µM (inactive)

query: Would you mind doing CCc1cnn2c(NCc3ccc[n+]([O-])c3)cc(N3CCCC[C@H]3CCO)nc12 [DINACICLIB] as well?
result: > 30 µM (inactive)

query: Again, but for CC[C@@H]1C(=O)N(C)c2cnc(Nc3ccc(C(=O)N[C@H]4CC[C@H](N5CCN(CC6CC6)CC5)CC4)cc3OC)nc2N1C(C)C [VOLASERTIB]
result: > 30 µM (inactive)

query: COCCNCc1ccc(-c2cc3nccc(Oc4ccc(NC(=S)NC(=O)Cc5ccc(F)cc5)cc4F)c3s2)nc1 [GLESATINIB] ?
result: > 30 µM (inactive)

----------
biological target: Serine/threonine-protein kinase PAK 4 (Homo sapiens); further: in the data inactive means no Kd found up to 30 µM
Sequence (O96013 whole entry): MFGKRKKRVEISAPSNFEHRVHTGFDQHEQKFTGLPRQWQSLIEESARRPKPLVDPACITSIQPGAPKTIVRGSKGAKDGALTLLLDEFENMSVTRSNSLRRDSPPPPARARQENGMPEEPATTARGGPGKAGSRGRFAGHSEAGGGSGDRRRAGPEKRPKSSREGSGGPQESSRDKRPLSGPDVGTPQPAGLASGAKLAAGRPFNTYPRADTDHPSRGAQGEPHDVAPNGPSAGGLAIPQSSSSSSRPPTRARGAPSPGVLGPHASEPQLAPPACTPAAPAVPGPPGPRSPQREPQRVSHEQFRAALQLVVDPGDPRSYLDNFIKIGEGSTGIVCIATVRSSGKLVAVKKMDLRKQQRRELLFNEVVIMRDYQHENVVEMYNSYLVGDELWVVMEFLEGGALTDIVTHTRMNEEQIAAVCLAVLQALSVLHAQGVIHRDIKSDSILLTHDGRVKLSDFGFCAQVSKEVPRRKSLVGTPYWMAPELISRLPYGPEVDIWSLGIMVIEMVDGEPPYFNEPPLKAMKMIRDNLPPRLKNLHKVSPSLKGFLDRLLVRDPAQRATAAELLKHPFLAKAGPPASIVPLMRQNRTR
Calls of active or inactive are those of the source.
Can you answer with just one of these options? label 1 for active, label 0 for inactive

query: What was the test verdict on `C[C@@H](c1ccc2nccn2c1)n1nnc2ncc(-c3cnn(C)c3)nc21` ?
result: label 0

query: Repeat with `CN(C)C(=O)c1cc2cnc(Nc3ccc(N4CCNCC4)cn3)nc2n1C1CCCC1`
result: label 0

query: Entry `CN1CC[C@@H](c2c(O)cc(O)c3c(=O)cc(-c4ccccc4Cl)oc23)[C@@H]1CO` please
result: label 0

query: Quick one: COC(=O)[C@@]1(O)C[C@H]2O[C@]1(C)n1c3ccccc3c3c4c(c5c6ccccc6n2c5c31)C(=O)NC4 [K-252A]
result: label 1

query: `O=C(O)[C@]1(Cc2cccc(Nc3nccs3)n2)CC[C@@H](Oc2cccc(Cl)c2F)CC1` ?
result: label 0

query: Follow-up entry: `Cc1ccc(NC(=O)c2ccc(CN3CC[C@H](N(C)C)C3)c(C(F)(F)F)c2)cc1Nc1nccc(-c2cncnc2)n1`
result: label 0

query: Also, `Cc1ccc(-n2nc(C(C)(C)C)cc2NC(=O)NCc2cc(F)ccc2Oc2ccc3c(cnn3CCO)c2)cc1` please.
result: label 0

query: What would you report for `CNC(=O)c1cc(Oc2ccc(NC(=O)Nc3ccc(Cl)c(C(F)(F)F)c3)c(F)c2)ccn1` ?
result: label 0

----------
target: UniProt Q9UK32
Sequence (Q9UK32 whole entry): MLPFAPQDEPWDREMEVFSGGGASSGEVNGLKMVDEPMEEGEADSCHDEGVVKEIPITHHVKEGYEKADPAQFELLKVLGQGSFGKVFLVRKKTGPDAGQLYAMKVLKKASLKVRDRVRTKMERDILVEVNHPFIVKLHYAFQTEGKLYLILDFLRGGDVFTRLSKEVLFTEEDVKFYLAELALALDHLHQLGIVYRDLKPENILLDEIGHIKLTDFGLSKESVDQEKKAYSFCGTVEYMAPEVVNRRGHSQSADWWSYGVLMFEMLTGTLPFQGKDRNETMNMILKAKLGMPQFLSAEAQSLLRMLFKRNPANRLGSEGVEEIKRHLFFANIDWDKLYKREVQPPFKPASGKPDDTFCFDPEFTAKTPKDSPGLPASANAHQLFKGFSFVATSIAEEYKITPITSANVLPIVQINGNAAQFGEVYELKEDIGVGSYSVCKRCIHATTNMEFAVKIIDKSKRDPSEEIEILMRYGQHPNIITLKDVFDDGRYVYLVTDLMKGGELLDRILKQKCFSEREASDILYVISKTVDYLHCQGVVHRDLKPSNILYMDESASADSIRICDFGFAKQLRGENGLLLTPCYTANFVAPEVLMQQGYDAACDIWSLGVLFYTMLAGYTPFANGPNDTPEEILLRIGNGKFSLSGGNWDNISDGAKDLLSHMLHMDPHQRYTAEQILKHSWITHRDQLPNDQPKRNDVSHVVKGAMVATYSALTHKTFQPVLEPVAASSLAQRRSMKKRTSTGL
The source made the active and inactive calls.
For each record, write down the corresponding Kd.

query: Looking for the measured Kd of `Cn1cc(-c2ccc3nnc(C(F)(F)c4ccc5ncccc5c4)n3n2)cn1` , can you help?
result: > 30 µM (inactive)

query: Now give it for `Cc1cc(-c2cc(O)ccc2Cl)cc2nnc(Nc3ccc(OCCN4CCCC4)cc3)nc12` too.
result: > 30 µM (inactive)

query: Please answer likewise for `O=C(Nc1cccc(Cl)c1)Nc1ncc(CCNc2ncnc3ccsc23)s1`
result: > 30 µM (inactive)

query: Another: `Cc1ccc(S(=O)(=O)Nc2nc3ccccc3nc2Nc2ccc3nsnc3c2)cc1`
result: > 30 µM (inactive)

query: Now this one: `Cn1ncc(Cl)c1-c1cc(C(=O)N[C@H](CN)Cc2cccc(F)c2)sc1Cl`
result: > 30 µM (inactive)

query: Queued: `OCCn1cc(-c2cnc3nnn(Cc4ccc5ncccc5c4)c3n2)cn1`
result: > 30 µM (inactive)

query: And for `CN1CCC(COc2cnc(-c3cccc(Cn4nc(-c5cccc(C#N)c5)ccc4=O)c3)nc2)CC1` ?
result: > 30 µM (inactive)

query: Entry `CNS(=O)(=O)Nc1nccc(Cc2c(C)c3ccc(Oc4ncccn4)cc3oc2=O)c1F` please
result: > 30 µM (inactive)

query: Let us now turn to `Cc1ccc(NC(=O)c2ccc(CN3CC[C@H](N(C)C)C3)c(C(F)(F)F)c2)cc1Nc1nccc(-c2cncnc2)n1`
result: > 30 µM (inactive)

query: Lookup `Cc1ccc(-n2nc(C(C)(C)C)cc2NC(=O)NCc2cc(F)ccc2Oc2ccc3c(cnn3CCO)c2)cc1`
result: > 30 µM (inactive)

query: Try this compound too: O=C(Nc1ccc(-c2ccnc(Nc3ccc(N4CCOCC4)cc3)n2)cc1)C1CCCN1 (stereo not drawn)
result: > 30 µM (inactive)

query: What do we get for Cc1cc2c(F)c(Oc3ncnn4cc(OC[C@@H](C)OC(=O)[C@H](C)N)c(C)c34)ccc2[nH]1 [BRIVANIB ALANINATE] ?
result: > 30 µM (inactive)

query: Same for `COc1cc(CCc2cc(NC(=O)c3ccc(N4C[C@@H](C)N[C@@H](C)C4)cc3)n[nH]2)cc(OC)c1`
result: > 30 µM (inactive)

----------
biological target: TGF-beta receptor type-1 (Homo sapiens, UniProt P36897); further: in the data inactive means no Kd found up to 30 µM
Sequence (P36897 whole entry): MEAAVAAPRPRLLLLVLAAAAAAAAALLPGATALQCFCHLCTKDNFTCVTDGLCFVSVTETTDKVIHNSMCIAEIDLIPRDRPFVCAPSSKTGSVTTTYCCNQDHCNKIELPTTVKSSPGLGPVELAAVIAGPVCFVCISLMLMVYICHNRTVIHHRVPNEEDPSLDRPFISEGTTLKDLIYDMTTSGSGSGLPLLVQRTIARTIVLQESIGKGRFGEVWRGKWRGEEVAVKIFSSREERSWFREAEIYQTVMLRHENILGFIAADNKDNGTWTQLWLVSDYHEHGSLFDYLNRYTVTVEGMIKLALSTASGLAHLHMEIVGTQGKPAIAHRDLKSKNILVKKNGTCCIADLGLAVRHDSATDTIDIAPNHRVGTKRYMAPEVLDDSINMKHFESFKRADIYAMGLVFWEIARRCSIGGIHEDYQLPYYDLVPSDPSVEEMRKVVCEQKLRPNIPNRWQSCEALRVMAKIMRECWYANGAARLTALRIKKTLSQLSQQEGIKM
The source made the active and inactive calls.
Assign a class; possible classes are true for active, false for inactive

query: Please state the recorded outcome for this compound: `Cc1cc(Nc2cc(N3CCN(C)CC3)nc(/C=C/c3ccccc3)n2)n[nH]1`
result: false

query: And what about the compound `CN1CCC(CNc2ccc3ncc(-c4cccc(OC(F)(F)F)c4)n3n2)CC1` ?
result: false

query: # iterate: `CNC(=O)CN1CCC(Oc2cc3c(Nc4cccc(Cl)c4F)ncnc3cc2OC)CC1`
result: false

query: Next compound: `Cn1cc(-c2ccc(F)c(C(F)(F)F)c2)nc1C1CCN(c2ncnc3[nH]ncc23)CC1`
result: false

query: `Cn1ncc(Cl)c1-c1cc(C(=O)N[C@H](CN)Cc2cccc(F)c2)sc1Cl` ?
result: false

query: Now the compound `CO[C@H]1C[C@@H]2CC[C@@H](C)[C@@](O)(O2)C(=O)C(=O)N2CCCC[C@H]2C(=O)O[C@H]([C@H](C)C[C@@H]2CC[C@@H](OCCO)[C@H](OC)C2)CC(=O)[C@H](C)/C=C(\C)[C@@H](O)[C@@H](OC)C(=O)[C@H](C)C[C@H](C)/C=C/C=C/C=C/1C`
result: false

query: Do the same for `Cc1cc(-c2cc(O)ccc2Cl)cc2nnc(Nc3ccc(OCCN4CCCC4)cc3)nc12` please
result: true

----------
target: Epithelial discoidin domain-containing receptor 1 (Homo sapiens); further: in the data inactive means no Kd found up to 30 µM
Sequence (Q08345 whole entry, the tested form may be a part): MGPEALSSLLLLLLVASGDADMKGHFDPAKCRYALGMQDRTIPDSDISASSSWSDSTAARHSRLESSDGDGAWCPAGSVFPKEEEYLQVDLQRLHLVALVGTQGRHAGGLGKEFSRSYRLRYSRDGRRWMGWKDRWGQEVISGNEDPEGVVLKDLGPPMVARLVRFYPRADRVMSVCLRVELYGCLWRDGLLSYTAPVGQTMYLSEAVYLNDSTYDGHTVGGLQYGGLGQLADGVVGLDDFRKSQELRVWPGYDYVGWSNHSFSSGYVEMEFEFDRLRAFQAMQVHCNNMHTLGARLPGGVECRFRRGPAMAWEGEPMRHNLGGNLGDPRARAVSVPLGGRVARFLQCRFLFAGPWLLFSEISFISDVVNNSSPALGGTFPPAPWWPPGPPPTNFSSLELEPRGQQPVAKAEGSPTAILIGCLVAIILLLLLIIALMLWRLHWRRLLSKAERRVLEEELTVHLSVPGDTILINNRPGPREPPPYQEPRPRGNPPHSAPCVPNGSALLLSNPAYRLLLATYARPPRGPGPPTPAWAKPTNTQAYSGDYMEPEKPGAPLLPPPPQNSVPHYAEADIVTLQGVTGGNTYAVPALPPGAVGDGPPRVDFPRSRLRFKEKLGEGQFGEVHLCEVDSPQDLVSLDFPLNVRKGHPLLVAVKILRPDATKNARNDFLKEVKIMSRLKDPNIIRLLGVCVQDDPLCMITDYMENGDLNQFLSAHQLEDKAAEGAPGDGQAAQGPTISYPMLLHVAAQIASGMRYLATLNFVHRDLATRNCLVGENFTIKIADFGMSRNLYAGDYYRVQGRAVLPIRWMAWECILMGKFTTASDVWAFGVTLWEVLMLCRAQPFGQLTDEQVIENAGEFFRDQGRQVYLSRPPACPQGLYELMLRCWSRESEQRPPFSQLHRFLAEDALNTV
Active and inactive are the calls of the source.
Give one outcome, nothing more. List: true for active, false for inactive

query: Recorded call for `Cc1ccc(S(=O)(=O)Nc2nc3ccccc3nc2Nc2ccc3nsnc3c2)cc1` ?
result: false

query: And the next one, `O=C(O)[C@]1(Cc2cccc(Nc3nccs3)n2)CC[C@@H](Oc2cccc(Cl)c2F)CC1` ?
result: true

query: Same question for `CNC(=O)CN1CCC(Oc2cc3c(Nc4cccc(Cl)c4F)ncnc3cc2OC)CC1` please.
result: false

query: How about this molecule: `CN1CCC(COc2cnc(-c3cccc(Cn4nc(-c5cccc(C#N)c5)ccc4=O)c3)nc2)CC1`
result: false

query: Next entry: CN1N=C(N)c2cn([C@@H]3O[C@H](COP(=O)(O)O)[C@@H](O)[C@H]3O)c3ncnc1c23 [TRICIRIBINE PHOSPHATE]
result: false

query: Could you do the same for `Cc1cc(-c2cc(O)ccc2Cl)cc2nnc(Nc3ccc(OCCN4CCCC4)cc3)nc12` , please?
result: true

query: Please do the same for `CCS(=O)(=O)N1CC(CC#N)(n2cc(-c3ncnc4[nH]ccc34)cn2)C1` as well.
result: false

query: Query `Cc1c(F)cc(C(=O)NC2CC2)cc1-c1ccc(C(=O)NCC(C)(C)C)cn1` next
result: false

----------
molecular target: cGMP-dependent protein kinase 1 (Homo sapiens); further: in the data inactive means no Kd found up to 30 µM
Sequence (Q13976 whole entry): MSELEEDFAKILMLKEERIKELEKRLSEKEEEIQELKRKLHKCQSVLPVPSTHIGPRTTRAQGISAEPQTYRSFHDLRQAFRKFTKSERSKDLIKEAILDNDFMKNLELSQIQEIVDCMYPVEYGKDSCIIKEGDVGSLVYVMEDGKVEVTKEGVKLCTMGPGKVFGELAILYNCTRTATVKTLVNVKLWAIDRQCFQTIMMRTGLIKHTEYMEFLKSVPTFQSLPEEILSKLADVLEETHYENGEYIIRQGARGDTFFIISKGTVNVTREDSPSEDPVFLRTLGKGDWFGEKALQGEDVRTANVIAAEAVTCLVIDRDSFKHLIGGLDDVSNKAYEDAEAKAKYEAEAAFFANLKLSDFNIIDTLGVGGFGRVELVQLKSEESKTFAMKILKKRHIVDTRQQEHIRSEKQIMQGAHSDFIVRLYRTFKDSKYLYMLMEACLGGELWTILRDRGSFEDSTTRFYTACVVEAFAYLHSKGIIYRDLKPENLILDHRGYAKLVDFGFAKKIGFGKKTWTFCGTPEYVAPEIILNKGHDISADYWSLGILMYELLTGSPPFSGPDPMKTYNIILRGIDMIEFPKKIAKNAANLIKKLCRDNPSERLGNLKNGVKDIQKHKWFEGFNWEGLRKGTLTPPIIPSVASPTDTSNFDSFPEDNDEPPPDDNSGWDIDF
The source made the active and inactive calls.
measure: Kd

query: Quick one: Kd for `OCCn1cc(-c2cnc3nnn(Cc4ccc5ncccc5c4)c3n2)cn1` ?
result: > 30 µM (inactive)

query: `C[C@@H]1CN(Cc2ccc(F)cc2)[C@@H](C)CN1C(=O)c1cc2c(C(=O)C(=O)N(C)C)cn(C)c2cc1Cl` ?
result: > 30 µM (inactive)

query: Likewise for `CO[C@H]1C[C@@H]2CC[C@@H](C)[C@@](O)(O2)C(=O)C(=O)N2CCCC[C@H]2C(=O)O[C@H]([C@H](C)C[C@@H]2CC[C@@H](OCCO)[C@H](OC)C2)CC(=O)[C@H](C)/C=C(\C)[C@@H](O)[C@@H](OC)C(=O)[C@H](C)C[C@H](C)/C=C/C=C/C=C/1C` ?
result: > 30 µM (inactive)

query: Follow-up entry: `CC[C@H](Nc1ncnc2[nH]cnc12)c1nc2cccc(F)c2c(=O)n1-c1ccccc1`
result: > 30 µM (inactive)

query: Can you check `CCS(=O)(=O)N1CC(CC#N)(n2cc(-c3ncnc4[nH]ccc34)cn2)C1` next?
result: > 30 µM (inactive)

query: Next compound: `CN(C)C(=O)c1cc2cnc(Nc3ccc(N4CCNCC4)cn3)nc2n1C1CCCC1`
result: > 30 µM (inactive)
